Numbers sourced from paper PMC4336329.

# Assay System: human ether-à-go-go-related gene (hERG) potassium channel (human, UniProt Q12809);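 note: peak tail current of the secondary pulse compared with the same well before compound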
# Sequence (Q12809 whole entry, looked up): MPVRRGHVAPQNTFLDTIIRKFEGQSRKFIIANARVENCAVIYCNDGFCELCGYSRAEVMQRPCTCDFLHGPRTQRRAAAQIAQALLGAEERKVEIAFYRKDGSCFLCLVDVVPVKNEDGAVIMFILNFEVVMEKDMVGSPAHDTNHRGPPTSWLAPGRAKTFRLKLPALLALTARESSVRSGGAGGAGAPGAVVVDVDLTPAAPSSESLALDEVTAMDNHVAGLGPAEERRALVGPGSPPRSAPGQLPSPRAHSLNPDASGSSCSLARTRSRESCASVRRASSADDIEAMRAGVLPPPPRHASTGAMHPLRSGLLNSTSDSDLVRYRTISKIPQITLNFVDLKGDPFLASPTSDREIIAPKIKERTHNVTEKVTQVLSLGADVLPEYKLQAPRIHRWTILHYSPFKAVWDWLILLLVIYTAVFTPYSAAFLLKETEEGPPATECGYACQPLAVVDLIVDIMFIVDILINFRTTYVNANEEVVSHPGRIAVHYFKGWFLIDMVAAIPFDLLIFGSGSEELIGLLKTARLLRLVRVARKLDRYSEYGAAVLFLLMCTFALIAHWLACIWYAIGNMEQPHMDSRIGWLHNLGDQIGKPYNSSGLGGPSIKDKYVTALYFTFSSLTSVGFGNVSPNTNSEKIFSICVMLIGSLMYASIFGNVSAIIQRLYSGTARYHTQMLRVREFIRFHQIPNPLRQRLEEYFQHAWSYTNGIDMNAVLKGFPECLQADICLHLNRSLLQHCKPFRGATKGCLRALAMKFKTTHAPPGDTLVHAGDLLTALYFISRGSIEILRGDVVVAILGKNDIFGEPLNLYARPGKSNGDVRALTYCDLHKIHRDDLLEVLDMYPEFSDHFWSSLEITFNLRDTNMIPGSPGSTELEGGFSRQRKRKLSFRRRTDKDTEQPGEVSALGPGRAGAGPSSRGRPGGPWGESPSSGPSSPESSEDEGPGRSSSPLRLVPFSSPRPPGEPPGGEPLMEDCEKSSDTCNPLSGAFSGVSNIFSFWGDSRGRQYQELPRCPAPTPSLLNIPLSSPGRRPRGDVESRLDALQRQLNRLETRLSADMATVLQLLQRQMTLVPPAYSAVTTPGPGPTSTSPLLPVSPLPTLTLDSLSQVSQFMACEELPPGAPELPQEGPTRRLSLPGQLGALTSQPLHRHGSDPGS
# Test Name: primary screen, population patch clamp on CHO cells stably expressing hERG; higher = less effect of the substance
In all, about 310,000 compounds went through this assay and about 14,000 (4.5%) showed an effect of 50% or more. Effects have a minus sign here. This is one part of a sample in which strong results are shown more often than they occur.
Is hERG current change (%, negative = inhibition) at 10uM at least -20%? Then 1 (yes). If not, 0 (no).

Textbook exercise: given the entry CC1(C)CC2CC(C)(CN2CC(O)c2ccccc2)C1.O=C(O)C(=O)O (stereo not drawn) , state whether its hERG current change (%, negative = inhibition) at 10uM is greater than or equal to -20%.
0 (no)

Textbook exercise: given the entry O=C(c1cc2ccccc2s1)N1CCN(c2ccccn2)CC1 , state whether its hERG current change (%, negative = inhibition) at 10uM is greater than or equal to -20%.
1 (yes)

Textbook exercise: given the entry CC(=O)c1ccc(-c2ccc(C(=O)NCC3CCCO3)o2)cc1 (stereo not drawn) , state whether its hERG current change (%, negative = inhibition) at 10uM is greater than or equal to -20%.
0 (no)

Textbook exercise: given the entry CCOc1ccc(NC(=O)c2ccc(N3CC4CC(C3)c3cccc(=O)n3C4)c(N)c2)cc1 (stereo not drawn) , state whether its hERG current change (%, negative = inhibition) at 10uM is greater than or equal to -20%.
0 (no)

Textbook exercise: given the entry CCOC(=O)CSc1n[nH]c(NS(=O)(=O)c2ccccc2C(F)(F)F)n1 , state whether its hERG current change (%, negative = inhibition) at 10uM is greater than or equal to -20%.
1 (yes)

* * *

Measured hERG current change (%, negative = inhibition) at 10uM by item
# Assay System: human ether-à-go-go-related gene (hERG) potassium channel (human);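 note: peak tail current of the secondary pulse compared with the same well before compound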
# Test Name: primary screen, population patch clamp on CHO cells stably expressing hERG; higher = less effect of the substance
In all, about 310,000 compounds went through this assay and about 14,000 (4.5%) showed an effect of 50% or more. The effect is printed as a negative number. Shown is part of a subset that was picked to be rich in strong results.
Give the number; % is assumed, so skip it.

O=C(Nc1cccnc1)c1ccc(S(=O)(=O)N2CCCCCC2)cc1	5.14
Cn1c(=O)n(C)c2cc(S(=O)(=O)O)ccc21	4.49
CCN(CCN1CCCC1)C(=O)c1cc(COc2ccccc2SC)on1	-32.1
COc1ccc(C(NC(=O)c2cccnc2)c2cc(Cl)c3cccnc3c2O)cc1OC (stereo not shown)	10.5
COCCNCC(=O)NC12CC3CC(CC(C3)C1)C2	8.91

What does the record list as hERG current change (%, negative = inhibition) at 10uM for Cc1ccnc(NC(=O)c2cc3ccccc3oc2=O)c1 ?
8.47

What does the record list as hERG current change (%, negative = inhibition) at 10uM for CCCc1cc(C(=O)Nc2sc3c(c2C(=O)OCC)CCCC3)no1 ?
6.07

What does the record list as hERG current change (%, negative = inhibition) at 10uM for COc1ccc(N(CC(=O)N2CCCCC2)S(=O)(=O)c2c(C)nn(C)c2C)cc1 ?
4.36

What does the record list as hERG current change (%, negative = inhibition) at 10uM for COc1ccc(C(=O)C2CCCN(Cc3cccc4c3OCO4)C2)cc1OC (stereo not shown) ?
-73.8

What does the record list as hERG current change (%, negative = inhibition) at 10uM for CCCCC(CCC(=O)O)(C(=O)OCC)c1csc(Nc2ccc(C)cc2)n1 (stereo not shown) ?
-0.891
